- Organism: Mus musculus
- Method: Compound was tested for the immunomodulatory activity in vitro expressed as stimulation index by lymphocyte transformation test at 0.1 ug/mL
- Type: functional
Non-standard residues stand in square brackets, D forms with d. Residues, ends and D or L forms follow the SMILES beside them. Ac5c = NC1(C(=O)O)CCCC1; GABA = NCCCC(=O)O
Result Type: Stimulation index
Give bare numbers.

Take a look at these entries with their results.
Molecule	Stimulation index
CC[C@@H](C)[C@@H](NC(=O)[C@@H]1CCCN1C(=O)[C@H](CCC(=O)O)NC(=O)[C@@H](N)C(C)C)C(=O)N1CCC[C@H]1C(=O)N[C@H](Cc1ccc(O)cc1)C(=O)O	1.08
CC[C@H](C)[C@H](NC(=O)CCCNC(=O)[C@@H](N)C(C)C)C(=O)N1CCC[C@H]1C(=O)N[C@@H](Cc1ccc(O)cc1)C(=O)O (H-V[GABA]IPY-OH)	0.73
CC[C@H](C)[C@H](NC(=O)C1(NC(=O)[C@H](CCC(=O)O)NC(=O)[C@@H](N)C(C)C)CCCC1)C(=O)N1CCC[C@H]1C(=O)N[C@@H](Cc1ccc(O)cc1)C(=O)O (H-VE[Ac5c]IPY-OH)	0.7

Request: I'd like to know its Stimulation index. The molecule in question is CC[C@H](C)[C@H](NC(=O)CNC(=O)CNC(=O)[C@@H](N)C(C)C)C(=O)N1CCC[C@H]1C(=O)N[C@@H](Cc1ccc(O)cc1)C(=O)O (H-VGGIPY-OH)
Response: 1.03
